Assay: self-splicing fitness, log relative to wild type (ln ratio); higher = more splicing; Tetrahymena group I intron in knt gene, E. coli kanamycin selection, DiMSum; sequences stand for … in CUCUCU…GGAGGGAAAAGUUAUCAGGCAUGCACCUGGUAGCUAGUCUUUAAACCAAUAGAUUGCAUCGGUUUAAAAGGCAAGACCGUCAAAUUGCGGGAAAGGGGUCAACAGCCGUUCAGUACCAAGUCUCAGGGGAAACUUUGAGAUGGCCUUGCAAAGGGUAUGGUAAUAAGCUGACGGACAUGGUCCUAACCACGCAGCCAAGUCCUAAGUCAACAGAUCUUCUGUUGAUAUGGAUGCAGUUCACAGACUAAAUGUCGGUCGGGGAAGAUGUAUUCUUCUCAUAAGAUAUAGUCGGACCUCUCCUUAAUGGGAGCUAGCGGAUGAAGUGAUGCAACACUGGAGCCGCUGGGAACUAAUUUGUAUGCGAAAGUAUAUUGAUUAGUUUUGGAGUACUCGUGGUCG;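 also: selection with 25 µg/mL kanamycin versus none on LB agar overnight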
Conditions: 37 °C
Assign condition met whenever self-splicing fitness (ln) does not fall below -0.6; assign condition not met whenever it does.

Some entries whose results are on file:
inputsequence=GUCGAGCAAUAUUACGAUAU group="condition met"
inputsequence=CCAGAGCAAUAUUACGCAAU group="condition not met"
inputsequence=ACCGAGCAAUAUUACGUCGG group="condition not met"
inputsequence=CGUAAGCAAUAUUACGCGGG group="condition not met"
inputsequence=AGACAGCAAUAUUACGUAUG group="condition not met"
inputsequence=GGGCAGCAAUAUUACGUUGA group="condition not met"
inputsequence=ACUUAGCAAUAUUACGACAC group="condition not met"
inputsequence=CCCCAGCAAUAUUACGGACU group="condition not met"
inputsequence=GCUGAGCAAUAUUACGCAUC group="condition met"
inputsequence=AGGAAGCAAUAUUACGACGU group="condition met"

Hello, I need to know if AUUCAGCAAUAUUACGAAAA has measured self-splicing fitness (ln) not below -0.6. Thanks! condition met

Quick check, self-splicing fitness (ln) >= -0.6? AACCAGCAAUAUUACGAAGU condition met
